# credit: patent US6329395A

Molecular target: neuropeptide Y5 receptor (Homo sapiens, UniProt Q15761)
Construct: expressed in transfected cells; host or cells: CHO cells (membranes)
Sequence (Q15761 1-445): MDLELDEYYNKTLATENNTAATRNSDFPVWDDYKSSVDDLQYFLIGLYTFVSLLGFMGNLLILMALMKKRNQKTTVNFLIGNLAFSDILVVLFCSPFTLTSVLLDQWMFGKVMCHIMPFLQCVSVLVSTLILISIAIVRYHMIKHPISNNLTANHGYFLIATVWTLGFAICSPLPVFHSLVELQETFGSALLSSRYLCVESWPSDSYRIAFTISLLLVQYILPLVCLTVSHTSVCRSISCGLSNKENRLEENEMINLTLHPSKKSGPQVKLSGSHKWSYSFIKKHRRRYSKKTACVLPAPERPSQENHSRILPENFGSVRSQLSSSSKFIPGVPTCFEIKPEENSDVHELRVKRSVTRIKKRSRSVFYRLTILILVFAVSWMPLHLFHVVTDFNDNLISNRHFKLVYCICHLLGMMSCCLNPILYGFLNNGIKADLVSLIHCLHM
Assay: NPY Receptor Binding Assay (125I-peptide YY, CHO cell membranes, neuropeptide Y5 receptor)
Experimental: Human NPY receptors were expressed in CHO cells. Binding assays were performed in 50 mM HEPES, pH. […] Non-specific binding was determined in the presence of 1 uM NPY. The reaction mixtures were incubated for 90 minutes at 30° C. […] The filters were washed with phosphate-buffered saline, and radioactivity was measured in a Packard TopCount scintillation counter.
endpointName: Ki (µM)
One number for each entry, in µM.

Could you tell me which Ki is on file for CN(C)C(=O)Nc1ccc(SC(C)(C)C)cc1 [Example 1M] ?
0.152

====

Target: neuropeptide Y5 receptor (Homo sapiens)
Construct: expressed in transfected cells; host or cells: CHO cells (membranes)
Sequence (Q15761 1-445): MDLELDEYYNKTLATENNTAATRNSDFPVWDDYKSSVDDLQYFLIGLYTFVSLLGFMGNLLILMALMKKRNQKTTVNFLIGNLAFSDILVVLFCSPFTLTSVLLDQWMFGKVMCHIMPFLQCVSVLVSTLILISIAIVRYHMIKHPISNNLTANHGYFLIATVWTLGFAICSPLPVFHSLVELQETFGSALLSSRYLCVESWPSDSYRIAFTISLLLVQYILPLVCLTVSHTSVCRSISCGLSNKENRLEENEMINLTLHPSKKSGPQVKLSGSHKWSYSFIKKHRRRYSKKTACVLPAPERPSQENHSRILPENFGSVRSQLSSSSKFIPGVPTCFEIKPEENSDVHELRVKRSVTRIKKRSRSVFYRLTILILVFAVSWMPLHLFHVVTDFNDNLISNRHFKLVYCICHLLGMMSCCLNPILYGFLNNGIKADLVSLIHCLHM
Experiment: NPY Receptor Binding Assay (125I-peptide YY, CHO cell membranes, neuropeptide Y5 receptor)
Conditions: neuropeptide Y5 receptor binding; 0.1 nM 125I-peptide YY; room temperature, 90 minutes; pH 7.2; r/h Y5; read-out: r/h Y5 Ki
Answer each item with its documented Ki.
Numbers only, in nM.

For orientation, consider the following solved cases.
{"compound": "CCCC(C)(C)Oc1ccc(NC(=O)CC(C)(C)C)cc1", "unitText": "nM", "reported": 668}
{"compound": "CCCC(C)(C)Sc1ccc(NC(=O)C(C)(C)N2CCN(c3ccccc3)CC2)cc1", "unitText": "nM", "reported": 18}
{"compound": "CCCC(C)(C)Sc1ccc(NC(=O)C(C)(C)C)cc1", "unitText": "nM", "reported": 3}
{"compound": "CCCC(C)(C)Oc1ccc(NC(=O)C(C)(C)C)cc1", "unitText": "nM", "reported": 13}
{"compound": "CCCCC1(Oc2ccc(NC(=O)N(C)c3ccccc3)cc2)CCCC1", "unitText": "nM", "reported": 66}

Quick batch: Ki for everything below.
1. CCCC(C)(C)Sc1ccc(NC(=O)N(C)C2CCN(S(C)(=O)=O)CC2)cc1 [Example 13A]
2. CCC(C)(C)CCc1ccc(NC(=O)N(C)CCc2ccncc2)cc1
3. CCCC(C)(C)Sc1ccc(NC(=O)C(C)(C)C)cc1F
4. CCCC(C)(C)Sc1ccc(NC(=O)NC2CCN(C)CC2)cc1
5. CCCC(C)(C)Sc1ccc(NC(=O)N(C)CCCN(C)C)cc1

[0.8, 0.4, 9, 697, 50]
